The measurements presented in this section are drawn from PubChem BioAssay AID2060500.

Tested on: 596521-263-R-J1-PDC complex spheroids, viability % of control
ASSAY NOTES: Anticancer human tumor 596521-263-R-J1-PDC patient-derived soft tissue sarcoma cell line growth inhibition [GQUAD]
PROTOCOL CONDITIONS: second compound 0.1 µM; first compound 0.00316 µM; stronger effect = lower value
MEASURED METRIC: viability, T/C

// solved cases for viability, T/C follow
MOLECULE	viability, T/C
Cc1[nH]c2ccccc2c1CCNCc1ccc(/C=C/C(=O)NO)cc1 + Cc1cnc(CNC(=O)c2c(=O)c3ccc(N4CCCN(C)CC4)nc3n3c2sc2ccccc23)cn1	81.8%
Cc1[nH]c2ccccc2c1CCNCc1ccc(/C=C/C(=O)NO)cc1 + CN(C)c1ccc(Nc2c3ccc(NC(=O)CCN4CCCC4)cc3nc3cc(NC(=O)CCN4CCCC4)ccc23)cc1	94.9%
CC[C@@]1(O)C(=O)OCc2c1cc1n(c2=O)Cc2cc3c(CN(C)C)c(O)ccc3nc2-1 + Cc1cnc(CNC(=O)c2c(=O)c3ccc(N4CCCN(C)CC4)nc3n3c2sc2ccccc23)cn1	85%
Cn1ncnc1[C@H]1c2n[nH]c(=O)c3cc(F)cc(c23)N[C@@H]1c1ccc(F)cc1 + CN(C)c1ccc(Nc2c3ccc(NC(=O)CCN4CCCC4)cc3nc3cc(NC(=O)CCN4CCCC4)ccc23)cc1	92.1%
CCc1c2c(nc3ccc(O)cc13)-c1cc3c(c(=O)n1C2)COC(=O)[C@]3(O)CC + Cc1[nH]c2ccc(F)cc2c1-c1nc2c3cccnc3c3ncccc3c2[nH]1	61.5%

Query :: Which viability, T/C reading was recorded for the molecule CCc1c2c(nc3ccc(O)cc13)-c1cc3c(c(=O)n1C2)COC(=O)[C@]3(O)CC + CN(C)c1ccc(Nc2c3ccc(NC(=O)CCN4CCCC4)cc3nc3cc(NC(=O)CCN4CCCC4)ccc23)cc1 ?
Result :: 51.8%

----------
Tested on: 596521-263-R-J1-PDC complex spheroids, viability % of control
ASSAY NOTES: Anticancer human tumor 596521-263-R-J1-PDC cell line growth inhibition [GQUAD];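 note: spheroids exposed to drugs for 7 days before viability reading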;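 for viability, T/C: 100% = DMSO vehicle control viability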
PROTOCOL CONDITIONS: second compound 10 µM; first compound 10 µM; stronger effect = lower value
MEASURED METRIC: viability, T/C (%)
Answer format: numeric, % implied, no suffix.

COMPOUND	viability, T/C (%)
O=C(NO)c1cnc(N2CCN(S(=O)(=O)c3ccc4ccccc4c3)CC2)nc1 + CN(C)c1ccc(Nc2c3ccc(NC(=O)CCN4CCCC4)cc3nc3cc(NC(=O)CCN4CCCC4)ccc23)cc1	0.34
COc1ccc([C@@H](O)c2cc(-c3ncnc4cc(N5CCOCC5)ccc34)c(F)cc2Cl)nn1 + Cc1cnc(CNC(=O)c2c(=O)c3ccc(N4CCCN(C)CC4)nc3n3c2sc2ccccc23)cn1	11
CC1COCCN1c1cc(-c2ccnn2C)c2ccnc(-c3ccn[nH]3)c2n1 (configuration not stated) + Cc1cnc(CNC(=O)c2c(=O)c3ccc(N4CCCN(C)CC4)nc3n3c2sc2ccccc23)cn1	14.1
O=c1[nH]cc(F)c(=O)[nH]1 + Cc1cnc(CNC(=O)c2c(=O)c3ccc(N4CCCN(C)CC4)nc3n3c2sc2ccccc23)cn1	47.6
O=c1[nH]cc(F)c(=O)[nH]1 + Cc1[nH]c2ccc(F)cc2c1-c1nc2c3cccnc3c3ncccc3c2[nH]1	72.4

Query :: Which viability, T/C reading was recorded for the compound CC1COCCN1c1cc(C2(O)CC3CCC(C2)O3)c2cnn(-c3ccn[nH]3)c2n1 (configuration not stated) + Cc1cnc(CNC(=O)c2c(=O)c3ccc(N4CCCN(C)CC4)nc3n3c2sc2ccccc23)cn1 ?
Result :: 4.21

Query :: Which viability, T/C reading was recorded for the compound COc1ncnc(C2CC2)c1-c1ncc2cnn(Cc3ccc(-c4nc(C(F)(F)F)cn4C(C)C)cc3)c2n1 + Cc1cnc(CNC(=O)c2c(=O)c3ccc(N4CCCN(C)CC4)nc3n3c2sc2ccccc23)cn1 ?
Result :: 0.28

----------
Recorded IC50 for the following compounds
Test system: 596521-263-R-J1-PDC complex spheroids, viability % of control
ASSAY NOTES: Anticancer human tumor 596521-263-R-J1-PDC cell line growth inhibition [GQUAD];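 note: spheroids exposed to drugs for 7 days before viability reading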
PROTOCOL CONDITIONS: curve of first compound; second compound 0.316 µM

COMPOUND	IC50
COc1ccc([C@@H](O)c2cc(-c3ncnc4cc(N5CCOCC5)ccc34)c(F)cc2Cl)nn1 + Cc1cnc(CNC(=O)c2c(=O)c3ccc(N4CCCN(C)CC4)nc3n3c2sc2ccccc23)cn1	1.69 µM
C=CC(=O)N1CCN(c2nc(=O)n(-c3c(C)ccnc3C(C)C)c3nc(-c4c(O)cccc4F)c(F)cc23)C(C)C1 (stereo not drawn) + Cc1[nH]c2ccc(F)cc2c1-c1nc2c3cccnc3c3ncccc3c2[nH]1	> 10 µM

Query :: Which IC50 reading was recorded for the compound Cc1cccc(N(C)C(=O)C2C(O)CCN2c2nc(C)cc(C(F)(F)F)c2C#N)c1 (stereo not drawn) + CN(C)c1ccc(Nc2c3ccc(NC(=O)CCN4CCCC4)cc3nc3cc(NC(=O)CCN4CCCC4)ccc23)cc1 ?
Result :: > 10 µM

----------
Test system: 596521-263-R-J1-PDC complex spheroids, viability % of control
ASSAY NOTES: Anticancer human tumor 596521-263-R-J1-PDC cell line growth inhibition [GQUAD];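 note: spheroids exposed to drugs for 7 days before viability reading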
PROTOCOL CONDITIONS: curve of first compound; second compound 0.316 µM
MEASURED METRIC: log10(IC50) (log10 of the value in µM)
Note: values are log10 of IC50 expressed in µM.

// solved cases for log10(IC50) follow
MOLECULE	log10(IC50)
Cc1[nH]c2ccccc2c1CCNCc1ccc(/C=C/C(=O)NO)cc1 + CN(C)c1ccc(Nc2c3ccc(NC(=O)CCN4CCCC4)cc3nc3cc(NC(=O)CCN4CCCC4)ccc23)cc1	-1.50
C#Cc1c(F)ccc2cc(O)cc(-c3ncc4c(N5CC6CCC(C5)N6)nc(OCC56CCCN5CC(F)C6)nc4c3F)c12 (stereo unspecified) + Cc1[nH]c2ccc(F)cc2c1-c1nc2c3cccnc3c3ncccc3c2[nH]1	0.14
COc1ncnc(C2CC2)c1-c1ncc2cnn(Cc3ccc(-c4nc(C(F)(F)F)cn4C(C)C)cc3)c2n1 + Cc1[nH]c2ccc(F)cc2c1-c1nc2c3cccnc3c3ncccc3c2[nH]1	0.08
O=C(NO)c1cnc(N2CCN(S(=O)(=O)c3ccc4ccccc4c3)CC2)nc1 + Cc1cnc(CNC(=O)c2c(=O)c3ccc(N4CCCN(C)CC4)nc3n3c2sc2ccccc23)cn1	-0.96
C=CCn1c(=O)c2cnc(Nc3ccc(N4CCN(C)CC4)cc3)nc2n1-c1cccc(C(C)(C)O)n1 + Cc1cnc(CNC(=O)c2c(=O)c3ccc(N4CCCN(C)CC4)nc3n3c2sc2ccccc23)cn1	-0.46
CC(C)(O)C1CCC(Nc2ccc3ncc(-c4cccc(C(F)(F)F)c4)n3n2)CC1 (stereo unspecified) + CN(C)c1ccc(Nc2c3ccc(NC(=O)CCN4CCCC4)cc3nc3cc(NC(=O)CCN4CCCC4)ccc23)cc1	0.19
CC(C)(O)C1CCC(Nc2ccc3ncc(-c4cccc(C(F)(F)F)c4)n3n2)CC1 (stereo unspecified) + Cc1cnc(CNC(=O)c2c(=O)c3ccc(N4CCCN(C)CC4)nc3n3c2sc2ccccc23)cn1	0.00
COc1cccc2c1C(=O)c1c(O)c3c(c(O)c1C2=O)CC(O)(C(=O)CO)CC3OC1CC(N)C(O)C(C)O1 (stereo unspecified) + Cc1[nH]c2ccc(F)cc2c1-c1nc2c3cccnc3c3ncccc3c2[nH]1	-0.10

Query :: Which log10(IC50) reading was recorded for the molecule Nc1ccn(C2OC(CO)C(O)C2(F)F)c(=O)n1 (stereo unspecified) + Cc1cnc(CNC(=O)c2c(=O)c3ccc(N4CCCN(C)CC4)nc3n3c2sc2ccccc23)cn1 ?
Result :: -1.17

Query :: Which log10(IC50) reading was recorded for the molecule CCc1c2c(nc3ccc(O)cc13)-c1cc3c(c(=O)n1C2)COC(=O)[C@]3(O)CC + Cc1cnc(CNC(=O)c2c(=O)c3ccc(N4CCCN(C)CC4)nc3n3c2sc2ccccc23)cn1 ?
Result :: -2.03

----------
System: 596521-263-R-J1-PDC complex spheroids, viability % of control
ASSAY NOTES: Anticancer human tumor 596521-263-R-J1-PDC cell line growth inhibition [GQUAD];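 note: spheroids exposed to drugs for 7 days before viability reading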;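 for viability, T/C: 100% = DMSO vehicle control viability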
PROTOCOL CONDITIONS: second compound 0.1 µM; first compound 1 µM; stronger effect = lower value
Parameter class (string): assigned from measured viability, T/C. Ranges: group A: < 70%; group B: ≥ 70% and < 90%; group C: ≥ 90%

COMPOUND	ASSIGNED LABEL
O=C(c1cc(Cc2n[nH]c(=O)c3ccccc23)ccc1F)N1CCN(C(=O)C2CC2)CC1 + CN(C)c1ccc(Nc2c3ccc(NC(=O)CCN4CCCC4)cc3nc3cc(NC(=O)CCN4CCCC4)ccc23)cc1	group C

We now examine a further compound.
Query :: Which class holds C#Cc1c(F)ccc2cc(O)cc(-c3ncc4c(N5CC6CCC(C5)N6)nc(OCC56CCCN5CC(F)C6)nc4c3F)c12 (stereo unspecified) + CN(C)c1ccc(Nc2c3ccc(NC(=O)CCN4CCCC4)cc3nc3cc(NC(=O)CCN4CCCC4)ccc23)cc1 ?
Result :: group C
